# target.entity: H2 histamine receptors (Cavia porcellus, UniProt P47747)
# Sequence (P47747 whole entry): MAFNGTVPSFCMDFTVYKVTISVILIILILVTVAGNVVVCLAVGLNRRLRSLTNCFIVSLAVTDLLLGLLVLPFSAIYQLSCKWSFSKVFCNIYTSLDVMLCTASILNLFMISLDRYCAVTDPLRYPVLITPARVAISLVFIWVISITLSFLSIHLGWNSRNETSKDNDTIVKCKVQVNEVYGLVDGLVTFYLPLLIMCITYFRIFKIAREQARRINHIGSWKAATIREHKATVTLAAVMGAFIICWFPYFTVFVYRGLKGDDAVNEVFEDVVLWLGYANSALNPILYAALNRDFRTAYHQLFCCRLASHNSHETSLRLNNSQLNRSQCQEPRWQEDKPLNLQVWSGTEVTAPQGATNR
# assay.protocol: cell-based
# Set-up: species or system guinea pig
# condition.details: vs histamine dose-response; 30 min after addition; 32° C., pH 7.4; results of three experiments; read-out: pA2 Value (apparent dissociation constant of the H2 antagonist) (converted)
Structures can show the parent of a compound that is named as a salt.
// values below are reported Kb
Quote the value and follow it with the unit of measurement.

>  <compound>
CN(C)Cc1ccc(CSCCNC2=NS(=O)(=O)c3ccccc32)o1

>  <observable>
Kb

>  <reported.measurement>
100 nM

$$$$
>  <compound>
O=S1(=O)N=C(NCCCOc2cccc(CN3CCCCC3)c2)c2ccc(Cl)cc21 [Example 7, hydrochloride salt hemihydrate]

>  <observable>
Kb

>  <reported.measurement>
31.6 nM

$$$$
>  <compound>
O=[N+]([O-])c1ccc2c(c1)S(=O)(=O)N=C2NCCCOc1cccc(CN2CCCCC2)c1 [Example 5, hydrochloride]

>  <observable>
Kb

>  <reported.measurement>
50.1 nM

$$$$
>  <compound>
O=S1(=O)N=C(NCCCOc2cccc(CNCc3ccco3)c2)c2ccccc21 [Example 29, hydrochloride]

>  <observable>
Kb

>  <reported.measurement>
69.2 nM

$$$$
>  <compound>
O=S1(=O)N=C(NCCCOc2cccc(CNCc3ccccc3)c2)c2ccccc21 [Example 30, hydrate]

>  <observable>
Kb

>  <reported.measurement>
63.1 nM

$$$$
>  <compound>
O=S1(=O)N=C(NCCCOc2cccc(CN3CCCCC3)c2)c2ccccc21

>  <observable>
Kb

>  <reported.measurement>
7.94 nM

$$$$
>  <compound>
O=S1(=O)N=C(NCCCOc2cccc(CN3CCCCC3)c2)c2cc(Cl)ccc21 [Example 11, hydrochloride]

>  <observable>
Kb

>  <reported.measurement>
79.4 nM

$$$$

Next compound, Kb to be filled in.
Data request: So what's the measured Kb for this one? O=S1(=O)N=C(NCCCOc2cccc(CN3CCCCC3)c2)c2ccc(F)cc21
Data returned: 20 nM
